Data provenance: paper PMC2756588

Target: T1, Bbc1, P47068
T1 sequence (P47068 1-78, looked up): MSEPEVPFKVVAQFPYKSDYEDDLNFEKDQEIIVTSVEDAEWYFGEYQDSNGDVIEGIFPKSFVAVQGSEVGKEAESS
Assay: SPOT array
Conditions: median of control spots 796
The reader will find reported SPOT intensity values listed item by item below.
result_type: SPOT intensity

binder: TKPTPPPKPSHLKPK
obs_value: 1
//
binder: KIRRSSLMIPNPQQF
obs_value: 13
//
binder: PALPSLPPPPLLNVD
obs_value: 0
//
binder: VKPRQLFPIPLNKVD
obs_value: 0
